assay: NCI Yeast Anticancer Drug Screen. Data for the bub3 strain (AID 167)
condition parameters: S. cerevisiae bub3 mutant strain, at 5.0 µM (retest, dose inferred, filed as 0.5), stronger effect = higher value
Procedure: Growth inhibition of yeast strains with defined genetic alterations is measured as a screen for potential anti-cancer activity. Selected strains with alterations in DNA damage repair or cell cycle control were exposed to compounds and growth inhibition was measured relative to vehicle treated controls. The strain used in this assay is bub3
Compounds without any hit were thinned out: in the full panel of roughly 79,000, 15% have a hit.
Listed below: growth inhibition values for each entry.

smiles str	growth inhibition, %
Cc1cc(CC(O)(C(F)(F)F)C(F)(F)F)cc(CC(O)(C(F)(F)F)C(F)(F)F)n1	-16
[CH3][Sn]1([CH3])[O]C(=O)CCN=Cc2c(ccc3ccccc23)[O][Sn]([CH3])([CH3])[O]C(=O)CCN=Cc2c(ccc3ccccc23)[O]1	84
CC(=O)Nc1ccc2c(ccc3cccc[n+]32)c1	-7
c1ccc2c(O[Si](Oc3cccc4ccccc34)(Oc3cccc4ccccc34)Oc3cccc4ccccc34)cccc2c1	3
CCCCCNC(=O)c1ccc(Cl)c(Cl)c1	10
Nc1ccc2oc(=O)c3ccccc3c2c1	-3
COc1cc2c[n+](C)c3c4cc(OC)c(OCc5ccccc5)cc4c(OCc4ccccc4)cc3c2cc1OC	16
CS/C(=N\C(=S)Nc1ccccc1)Nc1ccccc1	34
CCOC(=O)c1ccc(-n2c(C)nc3ccc(Br)cc3c2=O)cc1	1
COc1ccc(C(=O)OC(=O)c2ccc(OC)cc2)cc1	-1

###

assay: NCI Yeast Anticancer Drug Screen. Data for the cln2 rad14 strain (AID 165);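 note: 0% = growth equal to vehicle treated cultures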
condition parameters: S. cerevisiae cln2 rad14 strain, at 5.0 µM (retest, dose inferred, filed as 0.5), stronger effect = higher value
Procedure: Growth inhibition of yeast strains with defined genetic alterations is measured as a screen for potential anti-cancer activity. Selected strains with alterations in DNA damage repair or cell cycle control were exposed to compounds and growth inhibition was measured relative to vehicle treated controls. The strain used in this assay is cln2 rad14
About 79,000 compounds went through this panel and 15% of them were active in at least one assay; those are over-represented in the sample as a whole.
Listed below: growth inhibition values for each entry.
measured metric: growth inhibition (%)

molecule	numeric result
CC1(C)c2ccccc2-c2nc3ccccc3cc2C1Br (stereo unspecified)	-22
CC1CCN(CCCOC(=O)c2ccccc2)CC1	25
Cc1ccc(S(=O)(=O)Nc2ccccc2C=O)cc1	1
c1ccc2c(c1)Cc1nc3ccccc3nc1-2	-56
Cc1cc(=O)n(-c2cc3cccccc-3n2)[nH]1	-11
CC12C=CC(=O)C=C1CCC1C3CCC(O)(C(=O)CO)C3(C)CC(O)C12F (stereo unspecified)	6

###

assay: NCI Yeast Anticancer Drug Screen. Data for the sgs1 mgt1 strain (AID 161);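 note: 0% = growth of cultures given vehicle only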
condition parameters: S. cerevisiae sgs1 mgt1 strain, at 50.0 µM (retest, dose inferred, filed as 5.0)
This is part of a sample that, as a whole, favours compounds with a hit. Of some 79,000 tested, about 15% had one in any assay. The source made the active and inactive calls. No stated cut-off is given here; in the data, active means growth inhibition above about 70%; inactive means the rest.
Possible outcomes: T = active, F = inactive

compound	assigned category
Cc1cc(Br)cc(C)c1NC(=O)C(=O)C(C(=O)c1ccc2ccccc2c1)C1OC(=O)c2ccccc21 (stereo unspecified)	F
N#CC1(C#N)C(C#N)(C#N)C12CCCC2	F
[O-][n+]1onc2ncccc21	T
Cc1cc2c(cc1C)C(=O)OC2=O	F
CNC(C)C(=O)c1ccc2ccc3ccccc3c2c1 (stereo unspecified)	F
O=[N+]([O-])c1ccc(Sc2c3ccccc3nc3ccccc23)nc1	T

meta.source: PubChem BioAssay (NCI)
